Parameter pKi, tested on Carbonic anhydrase 1 (Homo sapiens), listed per item.
Sequence (P00915 whole entry): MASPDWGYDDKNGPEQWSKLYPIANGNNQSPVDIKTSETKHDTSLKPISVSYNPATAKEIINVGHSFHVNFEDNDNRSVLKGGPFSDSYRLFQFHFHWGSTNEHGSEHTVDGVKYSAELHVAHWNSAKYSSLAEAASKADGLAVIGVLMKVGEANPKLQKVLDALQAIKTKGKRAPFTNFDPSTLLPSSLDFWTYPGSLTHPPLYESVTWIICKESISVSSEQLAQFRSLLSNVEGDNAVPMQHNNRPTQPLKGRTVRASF
Please keep in mind that pKi is minus log10 of the molar concentration; only the number is needed.

Examples with their reported pKi follow.
* NS(=O)(=O)c1ccccc1C(=O)c1cccc(C(=O)O)n1 | 4.68
* Nc1c(S(N)(=O)=O)cc(S(N)(=O)=O)c(N)c1Cl | 5.21
* NS(=O)(=O)c1cccc(C(=O)c2cccc(C(=O)O)n2)c1 | 4.70
* NS(=O)(=O)c1ccc(C(=O)c2cccc(C(=O)O)n2)cc1 | 4.81
* NS(=O)(=O)c1ccc(NC(=O)c2cccc(C(=O)O)n2)cc1 | 4.67

Request: Which pKi value is on record for NS(=O)(=O)c1cc(S(N)(=O)=O)c(C(=O)c2cccc(C(=O)O)n2)c(Cl)c1C(=O)c1cccc(C(=O)O)n1 ?
Result: 6.30

Request: Which pKi value is on record for NS(=O)(=O)c1ccc(C(=O)c2cccc(C(=O)O)n2)c(Br)c1 ?
Result: 6.22

* * *

- target_system: Carbonic anhydrase 4 (Bos taurus, UniProt Q95323)
- Sequence (Q95323 whole entry): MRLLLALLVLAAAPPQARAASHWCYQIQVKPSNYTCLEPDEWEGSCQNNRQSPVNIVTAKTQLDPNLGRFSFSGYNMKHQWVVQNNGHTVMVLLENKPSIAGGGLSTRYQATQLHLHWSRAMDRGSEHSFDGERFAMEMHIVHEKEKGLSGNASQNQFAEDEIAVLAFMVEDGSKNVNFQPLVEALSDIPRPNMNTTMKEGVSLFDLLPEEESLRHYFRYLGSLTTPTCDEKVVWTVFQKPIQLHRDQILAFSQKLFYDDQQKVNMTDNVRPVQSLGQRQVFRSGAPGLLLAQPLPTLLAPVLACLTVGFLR
- assay_name: Inhibition of bovine carbonic anhydrase IV (CAIV)
Lab note: anything with Ki below 100 nM is marked Criterion met; values at 100 nM or higher are marked Criterion not met.

The examples below pair each entry with its known result.
• NS(=O)(=O)c1cc(S(N)(=O)=O)c(NC(=O)c2cccc(C(=O)O)n2)c(Cl)c1NC(=O)c1cccc(C(=O)O)n1 = Criterion met
• NS(=O)(=O)c1cccc(C(=O)c2cccc(C(=O)O)n2)c1 = Criterion not met
• NS(=O)(=O)c1ccc(CCON2C(=O)c3cccnc3C2=O)cc1 = Criterion not met
• NS(=O)(=O)c1ccc(C(=O)c2cccc(C(=O)O)n2)c(Cl)c1 = Criterion met

Request: Record NS(=O)(=O)c1ccc(C(=O)c2cccc(C(=O)O)n2)c(Br)c1 : is its Ki strictly below 100 nM?
Result: Criterion met

Request: Record NS(=O)(=O)c1ccc(C(=O)c2cccc(C(=O)O)n2)c(I)c1 : is its Ki strictly below 100 nM?
Result: Criterion met

Request: Record NS(=O)(=O)c1cc(S(N)(=O)=O)c(C(=O)c2cccc(C(=O)O)n2)c(Cl)c1C(=O)c1cccc(C(=O)O)n1 : is its Ki strictly below 100 nM?
Result: Criterion met

Request: Record NS(=O)(=O)c1ccccc1C(=O)c1cccc(C(=O)O)n1 : is its Ki strictly below 100 nM?
Result: Criterion not met

Request: Record Nc1c(S(N)(=O)=O)cc(S(N)(=O)=O)c(N)c1Cl : is its Ki strictly below 100 nM?
Result: Criterion not met

Request: Record NS(=O)(=O)c1ccc(CON2C(=O)c3cccnc3C2=O)cc1 : is its Ki strictly below 100 nM?
Result: Criterion not met
